System: Echinochloa oryzicola
Experiment: Post-emergence herbicidal activity against Echinochloa oryzicola assessed as weed killing at 0.5 kg ai/ha measured 30 days after compound treatment under green house conditions
Format: functional
Assay metric: Activity (%)
The reply should be a number in %, with the unit left off.

Please review the entries below; each comes with its answer.
{"columns": ["Compound", "Activity (%)"],
 "data": [
  ["CCN(CC)C(=O)n1cnc(S(=O)(=O)c2c(C)cc(C)cc2C)n1", 80],
  ["CC1COc2ccccc2N1C1=NC(=O)C(C)(C)S1 (configuration not stated)", 60],
  ["CCC1(CCl)SC(N2c3ccccc3OCC2C)=NC1=O (configuration not stated)", 50],
  ["CCC1(CCCl)SC(N2c3ccccc3OCC2C)=NC1=O (configuration not stated)", 60],
  ["CCC1(C)SC(N2c3ccccc3OCC2C)=NC1=O (configuration not stated)", 60]
]}

**Query** Query (compound): CC1COc2ccccc2N1C1=NC(=O)C(C)(CCCl)S1 (configuration not stated) ; field requested: Activity
**Result** 70

**Query** And what about the compound CCC1(CC)SC(N2c3ccccc3OCC2C)=NC1=O (configuration not stated) ?
**Result** 70

Data origin: ChEMBL document CHEMBL3045680
